# System name: Stromal interaction molecule 1 & 2/Calcium release-activated calcium channel protein 1 (Mus musculus) (UniProt Q8BWG9+P70302+P83093)
# Assay protocol: Modulation of STIM1/STIM2/Orai1 in mouse BV2 cells assessed as induction of store-operated calcium entry by measuring residual activity at 10 uM preincubated for 30 mins followed by tBhQ-mediated Ca2+ depletion and Ca2+ re-addition to extracellular solution measured for 600 secs by Fluo-4 AM-based fluorometric assay relative to control
# Format: cell-based
Property label: Activity (%)

The examples below pair each entry with its known result.
- Mol: "Oc1cccc(-c2cn(-c3ccc(-n4nc(C(F)(F)F)cc4C(F)(F)F)cc3)nn2)c1"
  Property label: "Activity"
  Reading: 95.9
- Mol: "Nc1cccc(-n2cc(-c3ccc(-n4nc(C(F)(F)F)cc4C(F)(F)F)cc3)nn2)c1"
  Property label: "Activity"
  Reading: 85.6

A. CCOC(=O)c1cnn(-c2ccc(-n3cc(-c4cccc(N)c4)nn3)cc2)c1C(F)(F)F
B. CCOC(=O)c1cnn(-c2ccc(-c3cn(-c4cccc(NC(C)=O)c4)nn3)cc2)c1C(F)(F)F
C. CCOC(=O)c1cnn(-c2ccc(NC(=O)C(Cl)=C(Cl)Cl)cc2)c1C(F)(F)F
D. O=C(O)c1ccc(-c2cn(-c3ccc(-n4nc(C(F)(F)F)cc4C(F)(F)F)cc3)nn2)cc1
IN: Sort the compounds on Activity; start with the lowest figure. Your task in answering is to list the labels in the requested order.
OUT: C, A, B, D
(C: 40.7%, A: 65.3%, B: 117%, D: 198%)
